Just for reference, paper PMC9092348 is where these values come from.

assay: Experimental measurement of LogPow by RP-HPLC; assay type: physicochemical
readout type: chromatographic logP

> print(dat)
          structure.smiles.string          readout.type  reported.measurement
1  O=C1c2ccccc2C(=O)c2c1ccc(O)c2O  chromatographic logP                  1.87
